Consider the following molecules and their measured Ki readings.
Molecular target: Neprilysin/Angiotensin-converting enzyme (Homo sapiens, UniProt P08473+P12821)
Sequence (P12821 whole entry): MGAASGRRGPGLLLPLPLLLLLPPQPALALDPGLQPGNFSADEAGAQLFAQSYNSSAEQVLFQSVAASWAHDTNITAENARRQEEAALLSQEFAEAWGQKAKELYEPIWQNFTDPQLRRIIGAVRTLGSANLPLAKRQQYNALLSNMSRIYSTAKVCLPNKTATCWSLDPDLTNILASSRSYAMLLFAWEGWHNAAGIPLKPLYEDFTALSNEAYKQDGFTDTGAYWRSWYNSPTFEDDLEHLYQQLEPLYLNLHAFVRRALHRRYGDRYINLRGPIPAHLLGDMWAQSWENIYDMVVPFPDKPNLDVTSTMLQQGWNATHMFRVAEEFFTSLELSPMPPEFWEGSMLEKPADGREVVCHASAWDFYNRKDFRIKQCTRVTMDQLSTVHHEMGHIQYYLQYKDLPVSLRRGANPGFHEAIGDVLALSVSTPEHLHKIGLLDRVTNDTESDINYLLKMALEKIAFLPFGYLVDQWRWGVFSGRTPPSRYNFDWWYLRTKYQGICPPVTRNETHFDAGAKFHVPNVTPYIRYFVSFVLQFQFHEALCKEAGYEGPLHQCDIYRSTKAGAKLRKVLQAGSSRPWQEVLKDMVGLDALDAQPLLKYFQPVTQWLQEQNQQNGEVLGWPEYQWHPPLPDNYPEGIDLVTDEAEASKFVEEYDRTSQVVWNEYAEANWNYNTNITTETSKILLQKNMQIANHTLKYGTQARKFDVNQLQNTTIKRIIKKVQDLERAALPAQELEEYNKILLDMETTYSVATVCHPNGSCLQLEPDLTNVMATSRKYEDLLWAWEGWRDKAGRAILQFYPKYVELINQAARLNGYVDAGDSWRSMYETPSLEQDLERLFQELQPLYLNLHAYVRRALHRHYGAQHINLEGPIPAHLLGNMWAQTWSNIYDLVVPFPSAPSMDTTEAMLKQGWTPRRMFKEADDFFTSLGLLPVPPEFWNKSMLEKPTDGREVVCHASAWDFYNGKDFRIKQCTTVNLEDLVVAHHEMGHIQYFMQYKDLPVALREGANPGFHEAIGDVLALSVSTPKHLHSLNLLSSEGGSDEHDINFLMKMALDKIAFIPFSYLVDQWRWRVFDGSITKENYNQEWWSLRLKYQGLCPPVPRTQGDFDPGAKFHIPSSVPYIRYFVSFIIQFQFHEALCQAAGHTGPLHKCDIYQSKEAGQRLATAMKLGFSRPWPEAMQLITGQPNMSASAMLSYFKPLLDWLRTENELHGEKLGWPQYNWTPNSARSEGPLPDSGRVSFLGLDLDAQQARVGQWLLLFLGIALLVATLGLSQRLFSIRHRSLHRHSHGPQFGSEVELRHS
Sequence (P08473 whole entry): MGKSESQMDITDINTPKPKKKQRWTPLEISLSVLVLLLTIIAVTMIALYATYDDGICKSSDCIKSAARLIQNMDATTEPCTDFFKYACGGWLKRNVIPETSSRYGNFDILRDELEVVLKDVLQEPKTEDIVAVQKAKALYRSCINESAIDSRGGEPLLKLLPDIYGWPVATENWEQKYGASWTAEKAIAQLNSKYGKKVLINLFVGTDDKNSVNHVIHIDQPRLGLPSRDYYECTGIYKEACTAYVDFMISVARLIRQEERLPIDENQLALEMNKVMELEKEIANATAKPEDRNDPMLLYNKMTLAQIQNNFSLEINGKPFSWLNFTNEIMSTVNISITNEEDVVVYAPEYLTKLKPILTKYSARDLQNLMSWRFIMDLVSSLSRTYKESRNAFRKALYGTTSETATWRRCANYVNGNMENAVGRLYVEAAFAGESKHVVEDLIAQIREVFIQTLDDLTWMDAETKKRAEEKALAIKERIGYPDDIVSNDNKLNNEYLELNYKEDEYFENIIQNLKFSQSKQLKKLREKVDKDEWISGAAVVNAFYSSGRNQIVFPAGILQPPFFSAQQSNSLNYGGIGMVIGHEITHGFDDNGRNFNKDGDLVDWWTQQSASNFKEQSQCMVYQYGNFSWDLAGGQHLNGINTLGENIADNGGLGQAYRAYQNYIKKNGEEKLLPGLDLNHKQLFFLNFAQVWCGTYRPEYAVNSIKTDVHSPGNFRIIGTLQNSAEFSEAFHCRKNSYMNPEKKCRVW
Assay: Enzyme Inhibition Assays (Assay 1)

{"columns": ["Molecule", "Reported property", "Result"],
 "data": [
  ["CC(O)(CN(Cc1ccc(-c2ccccc2)cc1)NC(=O)C(=O)O)C(=O)O (configuration not stated) [US20230285340, Example 12]", "Ki", "12.6 to 100 nM"],
  ["CC(C)(c1ccc(-c2ccccc2)cc1)[C@H](C[C@@H](O)C(=O)O)NC(=O)C(=O)O [US20230285340, Example 15]", "Ki", "12.6 to 100 nM"],
  ["CC(C)OC(=O)[C@H](O)C[C@@H](Cc1ccc(-c2cccc(Cl)c2)cc1)NC(=O)C(=O)O [US20230285340, Example 2J]", "Ki", "12.6 to 100 nM"]
]}

get_value(item= CC(C)COC(=O)[C@H](O)C[C@@H](Cc1ccc(-c2cccc(Cl)c2)cc1)NC(=O)C(=O)O [US20230285340, Example 2I] , readout=Ki) returns 1.26 to 10 nM

get_value(item= C[C@@](CO)(C[C@@H](Cc1ccc(-c2cccc(F)c2)cc1)NC(=O)C(=O)O)C(=O)O [US20230285340, Example 10] , readout=Ki) returns 1.26 to 10 nM

get_value(item= C[C@@](CO)(C[C@@H](Cc1ccc(-c2ccccc2)cc1)NC(=O)C(=O)O)C(=O)O [US20230285340, Example 9A] , readout=Ki) returns 1.26 to 10 nM

get_value(item= CC(C)OC(=O)C(=O)N[C@H](Cc1ccc(-c2cccc(Cl)c2)cc1)C[C@@H](O)C(=O)O [US20230285340, Example 2G] , readout=Ki) returns 1.26 to 10 nM
